# system: T1, GHRH receptor of human pituitary membranes (human, UniProt Q02643)
# T1 sequence: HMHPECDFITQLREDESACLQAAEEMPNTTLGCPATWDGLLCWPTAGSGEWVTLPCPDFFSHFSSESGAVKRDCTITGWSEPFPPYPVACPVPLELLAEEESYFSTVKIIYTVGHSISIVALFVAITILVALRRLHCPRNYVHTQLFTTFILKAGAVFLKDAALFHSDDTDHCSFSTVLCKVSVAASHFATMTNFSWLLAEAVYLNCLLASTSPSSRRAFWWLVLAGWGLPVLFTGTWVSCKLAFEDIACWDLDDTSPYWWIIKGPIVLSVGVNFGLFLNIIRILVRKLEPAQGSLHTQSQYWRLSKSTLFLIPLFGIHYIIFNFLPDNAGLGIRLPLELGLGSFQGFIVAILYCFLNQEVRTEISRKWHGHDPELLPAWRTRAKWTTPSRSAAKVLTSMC
# assay-remarks: competition vs 125I-JV-1-42, human pituitary membranes;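 further: pituitaries used were normal human glands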
Non-standard residues stand in square brackets, D forms with d. No end group written: not given here. *: point of attachment. NMeY = CN[C@@H](Cc1ccc(O)cc1)C(=O)O; Agmatine = N=C(N)NCCCCN*; Nle = CCCC[C@H](N)C(=O)O; Orn = NCCC[C@H](N)C(=O)O; Abu = CC[C@H](N)C(=O)O
readout-kind: relative affinity (binding potency) vs JI-38 (vs JI-38=1)

// below: answered binders
{"binder": "[NMeY][dA]DAIFTQSYR[Orn]VL[Abu]QLSAR[Orn]LLQDI[Nle]D[Agmatine] [P-20361 [N-Me-Tyr^1, D-Ala^2, Gln^8, Orn^12, Abu^15, Orn^21, Nle^27, Asp^28, Agm^29]hGHRH(1-29)NH2]", "recorded-result": 5.3}
{"binder": "[NMeY][dA]DAIFTTSYR[Orn]VL[Abu]QLSAR[Orn]LLQDI[Nle]DR-NHMe [P-27410 [N-Me-Tyr^1, D-Ala^2, Thr^8, Orn^12, Abu^15, Orn^21, Nle^27, Asp^28]hGHRH(1-29)NH-CH3]", "recorded-result": 5.24}
{"binder": "YADAIFTNSYRKVLGQLSARKLLQDIMSRQ (N-Me-Tyr^1; D-Ala^2; Fpa5^6; Orn^12; Abu^15; Orn^21; Nle^27; Gab^30 (in place of Gln^30); C-terminal -NH-CH3) [P-27414 [N-Me-Tyr^1, D-Ala^2, Fpa5^6, Orn^12, Abu^15, Orn^21, Nle^27, Gab^30]hGHRH(1-30)NH-CH3]", "recorded-result": 2.79}
{"binder": "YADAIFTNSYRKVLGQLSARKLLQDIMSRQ (Dat^1; D-Abu^2; Orn^12; Abu^15; Orn^21; Nle^27; Gab^30 (in place of Gln^30); C-terminal -NH2) [P-25504 [Dat^1, D-Abu^2, Orn^12, Abu^15, Orn^21, Nle^27, Gab^30]hGHRH(1-30)NH2]", "recorded-result": 3.02}
{"binder": "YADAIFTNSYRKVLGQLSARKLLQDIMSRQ (N-Me-Tyr^1; Orn^12; Abu^15; Orn^21; Nle^27; Gab^30 (in place of Gln^30); C-terminal -NH-CH3) [P-27415 [N-Me-Tyr^1, Orn^12, Abu^15, Orn^21, Nle^27, Gab^30]hGHRH(1-30)NH-CH3]", "recorded-result": 1.44}

(A) [NMeY]ADAIFTQSYR[Orn]VL[Abu]QLSAR[Orn]LLQDI[Nle]DR-NHMe [P-27406 [N-Me-Tyr^1, Gln^8, Orn^12, Abu^15, Orn^21, Nle^27, Asp^28]hGHRH(1-29)NH-CH3]
(B) [NMeY][dA]DAIFTQSYR[Orn]VL[Abu]QLSAR[Orn]LLQDI[Nle]DR-NHMe [P-27403 [N-Me-Tyr^1, D-Ala^2, Gln^8, Orn^12, Abu^15, Orn^21, Nle^27, Asp^28]hGHRH(1-29)NH-CH3]
(C) [NMeY][dA]DAIFTNSYR[Orn]VL[Abu]QLSAR[Orn]LLQDI[Nle]DR-NHEt [P-28421 [N-Me-Tyr^1, D-Ala^2, Orn^12, Abu^15, Orn^21, Nle^27, Asp^28]hGHRH(1-29)NH-CH2-CH3]
q: Let's sort these by relative affinity (binding potency) vs JI-38, smallest first. Go ahead? Arrange the labels as the request states and list them.
a: C, A, B
(C: 2.96 vs JI-38=1, A: 14.5 vs JI-38=1, B: 27.2 vs JI-38=1)
